Target: NAAA (N-Acylethanolamine Hydrolizing Acid Amidase) (Homo sapiens)
Sequence (Q02083 29-359): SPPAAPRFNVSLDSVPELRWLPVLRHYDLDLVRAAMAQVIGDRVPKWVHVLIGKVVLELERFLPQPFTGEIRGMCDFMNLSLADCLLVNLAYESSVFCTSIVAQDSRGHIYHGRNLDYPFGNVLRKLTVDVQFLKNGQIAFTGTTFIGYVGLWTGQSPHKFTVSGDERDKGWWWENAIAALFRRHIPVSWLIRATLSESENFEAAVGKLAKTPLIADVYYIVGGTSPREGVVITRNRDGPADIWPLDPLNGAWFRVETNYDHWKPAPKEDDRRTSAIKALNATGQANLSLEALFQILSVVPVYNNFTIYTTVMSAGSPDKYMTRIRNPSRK
Measurement Kind: pIC50
Note on pIC50: it is the negative log10 of concentration, concentration in mol/L.

q: Item CCCCCCCCCCCCCCCC1=NCCO1 [PEA-OXA, 2-pentadecyl-2-oxazoline] with NAAA (N-Acylethanolamine Hydrolizing Acid Amidase) (Homo sapiens) - pIC50?
a: 4.62

q: // repeat for CCCCCCCCCCCCCCCC1=NCCO1 [PEA-OXLE] and report
a: 4.49

q: // query: O=C(CCc1ccccc1)N[C@H]1COC1=O [reference compound]
a: 6.38

q: Also need CCCCCCCCCCCCCC1=NCCO1 , thanks.
a: 4.38
